biological target: Human recombinant PARP1 (Homo sapiens (Human)); experiment: RBC HotSpot PARP1 radioisotope-based filter binding assay; details: read-out: PARP1 IC50; 2.5 nM PARP1, histone H4, 10 μM 32P-NAD+
Sequence (P09874 whole entry): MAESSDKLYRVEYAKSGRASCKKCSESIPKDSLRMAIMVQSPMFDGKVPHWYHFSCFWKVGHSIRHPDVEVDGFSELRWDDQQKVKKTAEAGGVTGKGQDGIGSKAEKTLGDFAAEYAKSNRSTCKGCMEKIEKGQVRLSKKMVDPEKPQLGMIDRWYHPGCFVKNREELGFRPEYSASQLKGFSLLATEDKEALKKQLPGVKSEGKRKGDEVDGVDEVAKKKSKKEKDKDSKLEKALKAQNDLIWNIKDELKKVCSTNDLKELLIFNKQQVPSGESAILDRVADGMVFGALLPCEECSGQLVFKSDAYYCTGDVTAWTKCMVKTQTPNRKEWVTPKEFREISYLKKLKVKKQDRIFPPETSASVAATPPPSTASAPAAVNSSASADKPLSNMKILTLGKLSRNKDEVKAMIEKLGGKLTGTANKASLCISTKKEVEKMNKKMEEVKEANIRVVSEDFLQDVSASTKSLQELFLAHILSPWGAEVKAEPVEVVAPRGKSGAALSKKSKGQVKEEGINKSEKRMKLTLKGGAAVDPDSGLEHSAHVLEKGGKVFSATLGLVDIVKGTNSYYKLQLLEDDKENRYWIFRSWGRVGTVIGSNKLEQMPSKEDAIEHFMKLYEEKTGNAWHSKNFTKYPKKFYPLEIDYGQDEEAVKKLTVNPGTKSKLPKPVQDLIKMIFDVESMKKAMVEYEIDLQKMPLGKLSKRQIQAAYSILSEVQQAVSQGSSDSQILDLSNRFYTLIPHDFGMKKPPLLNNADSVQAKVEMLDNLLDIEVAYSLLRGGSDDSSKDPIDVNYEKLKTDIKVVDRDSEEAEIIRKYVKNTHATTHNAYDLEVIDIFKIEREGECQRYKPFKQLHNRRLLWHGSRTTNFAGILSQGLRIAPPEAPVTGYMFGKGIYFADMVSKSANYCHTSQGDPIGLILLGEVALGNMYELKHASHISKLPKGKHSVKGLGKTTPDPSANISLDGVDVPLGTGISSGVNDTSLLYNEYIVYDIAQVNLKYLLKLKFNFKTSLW
ASSAY_READOUT: pIC50
By convention, pIC50 is the negative base-10 log of a molar concentration.

Endpoint output: pIC50 of C[C@](O)(CS(=O)(=O)C1CCN(C(=O)c2cc(Cc3n[nH]c(=O)c4ccccc34)ccc2F)CC1)C(=O)Nc1ccc(C#N)c(C(F)(F)F)c1 . Value?
9.22

Likewise for CC/C(=C(/c1ccc(OCCCOCCN2CCN(C(=O)c3cc(Cc4n[nH]c(=O)c5ccccc45)ccc3F)CC2)cc1)c1ccc2[nH]ncc2c1)c1ccc(Cl)cc1F ?
7.40

Now this one: CC1(C)C(=O)N(c2ccc(C#N)c(C(F)(F)F)c2)C(=S)N1CCNC(=O)c1cc(Cc2n[nH]c(=O)c3ccccc23)ccc1F
8.30

----------
molecular target: Human recombinant PARP2 (Homo sapiens (Human)); assay: RBC HotSpot PARP2 radioisotope-based filter binding assay; details: read-out: PARP2 IC50; 2.5 nM PARP2, histone H3, 10 μM 32P-NAD+
Sequence (Q9UGN5 whole entry): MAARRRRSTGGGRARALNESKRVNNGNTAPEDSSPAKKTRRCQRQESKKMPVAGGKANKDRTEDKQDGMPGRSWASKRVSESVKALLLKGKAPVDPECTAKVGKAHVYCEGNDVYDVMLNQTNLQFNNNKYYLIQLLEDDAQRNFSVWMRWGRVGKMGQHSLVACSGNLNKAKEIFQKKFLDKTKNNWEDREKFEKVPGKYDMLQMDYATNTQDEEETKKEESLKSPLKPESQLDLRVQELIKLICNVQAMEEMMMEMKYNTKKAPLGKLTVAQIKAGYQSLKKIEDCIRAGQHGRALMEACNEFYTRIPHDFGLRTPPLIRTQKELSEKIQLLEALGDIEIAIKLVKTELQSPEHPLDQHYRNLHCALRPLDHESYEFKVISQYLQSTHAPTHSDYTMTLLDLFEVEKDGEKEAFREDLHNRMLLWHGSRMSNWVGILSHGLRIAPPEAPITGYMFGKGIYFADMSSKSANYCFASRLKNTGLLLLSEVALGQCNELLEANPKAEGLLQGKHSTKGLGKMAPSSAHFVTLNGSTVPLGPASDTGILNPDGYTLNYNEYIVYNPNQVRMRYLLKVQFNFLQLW
ASSAY_READOUT: pIC50
Reminder that pIC50 is minus the log10 of a molar concentration.

Query pIC50 on Human recombinant PARP2 (Homo sapiens (Human)) for CC/C(=C(/c1ccc(OCCCCCC(=O)N2CCN(C(=O)c3cc(Cc4n[nH]c(=O)c5ccccc45)ccc3F)CC2)cc1)c1ccc2[nH]ncc2c1)c1ccc(Cl)cc1F
8.05

Query Cn1ncnc1[C@@H]1c2n[nH]c(=O)c3cc(F)cc(c23)N[C@H]1c1ccc(OC[C@](C)(O)C(=O)Nc2ccc(C#N)c(C(F)(F)F)c2)cc1 next
7.52

Also C[C@@H]1Cc2c([nH]c3ccccc23)[C@@H](c2c(F)cc(OCCCCCC(=O)N3CCN(C(=O)c4cc(Cc5n[nH]c(=O)c6ccccc56)ccc4F)CC3)cc2F)N1CC(C)(C)F , if possible.
8.52

// same read-out, input: CC1(C)C(=O)N(c2ccc(C#N)c(C(F)(F)F)c2)C(=O)N1CCNC(=O)c1cc(Cc2n[nH]c(=O)c3ccccc23)ccc1F
9.00

Note, next up: C[C@](O)(CS(=O)(=O)C1CCN(C(=O)c2cc(Cc3n[nH]c(=O)c4ccccc34)ccc2F)CC1)C(=O)Nc1ccc(C#N)c(C(F)(F)F)c1
9.70

Repeat with CC1(C)C(=O)N(c2ccc([N+](=O)[O-])c(C(F)(F)F)c2)C(=O)N1CCNC(=O)c1cc(Cc2n[nH]c(=O)c3ccccc23)ccc1F
9.00

// repeat for Cn1ncnc1[C@@H]1c2n[nH]c(=O)c3cc(F)cc(c23)N[C@H]1c1ccc(N2C(=S)N(c3ccc(C#N)c(C(F)(F)F)c3)C(=O)C2(C)C)cc1 and report
7.70

Note, next up: C[C@H]1Cc2c([nH]c3ccccc23)[C@H](c2c(F)cc(OCCN3CCN(C(=O)c4cc(Cc5n[nH]c(=O)c6ccccc56)ccc4F)CC3)cc2F)N1CC(C)(C)F (stereo in doubt)
8.40

Please give the result for Cn1ncnc1[C@H]1c2n[nH]c(=O)c3cc(F)cc(c23)N[C@@H]1c1ccc(N2C(=S)N(c3ccc(C#N)c(C(F)(F)F)c3)C(=O)C2(C)C)cc1 too.
9.52

Entry to check: CC1(C)C(=O)N(c2ccc(C#N)c(C(F)(F)F)c2)C(=S)N1C1CCN(C(=O)c2cc(Cc3n[nH]c(=O)c4ccccc34)ccc2F)CC1
9.22

Similarly, CC/C(=C(/c1ccc(OCCCCCCN2CCN(C(=O)c3cc(Cc4n[nH]c(=O)c5ccccc45)ccc3F)CC2)cc1)c1ccc2[nH]ncc2c1)c1ccc(Cl)cc1F ?
7.54

Now this one: CC/C(=C(/c1ccc(OCCCOCC(=O)N2CCN(C(=O)c3cc(Cc4n[nH]c(=O)c5ccccc45)ccc3F)CC2)cc1)c1ccc2[nH]ncc2c1)c1ccc(Cl)cc1F
8.22

Reference for the values: patent US11826430B2
